From: ChEMBL document CHEMBL2218924

Task for the reader: assign each of the following compounds its reported residual activity.
- tgt: Serine/threonine-protein kinase haspin (Homo sapiens)
- Sequence (whole entry): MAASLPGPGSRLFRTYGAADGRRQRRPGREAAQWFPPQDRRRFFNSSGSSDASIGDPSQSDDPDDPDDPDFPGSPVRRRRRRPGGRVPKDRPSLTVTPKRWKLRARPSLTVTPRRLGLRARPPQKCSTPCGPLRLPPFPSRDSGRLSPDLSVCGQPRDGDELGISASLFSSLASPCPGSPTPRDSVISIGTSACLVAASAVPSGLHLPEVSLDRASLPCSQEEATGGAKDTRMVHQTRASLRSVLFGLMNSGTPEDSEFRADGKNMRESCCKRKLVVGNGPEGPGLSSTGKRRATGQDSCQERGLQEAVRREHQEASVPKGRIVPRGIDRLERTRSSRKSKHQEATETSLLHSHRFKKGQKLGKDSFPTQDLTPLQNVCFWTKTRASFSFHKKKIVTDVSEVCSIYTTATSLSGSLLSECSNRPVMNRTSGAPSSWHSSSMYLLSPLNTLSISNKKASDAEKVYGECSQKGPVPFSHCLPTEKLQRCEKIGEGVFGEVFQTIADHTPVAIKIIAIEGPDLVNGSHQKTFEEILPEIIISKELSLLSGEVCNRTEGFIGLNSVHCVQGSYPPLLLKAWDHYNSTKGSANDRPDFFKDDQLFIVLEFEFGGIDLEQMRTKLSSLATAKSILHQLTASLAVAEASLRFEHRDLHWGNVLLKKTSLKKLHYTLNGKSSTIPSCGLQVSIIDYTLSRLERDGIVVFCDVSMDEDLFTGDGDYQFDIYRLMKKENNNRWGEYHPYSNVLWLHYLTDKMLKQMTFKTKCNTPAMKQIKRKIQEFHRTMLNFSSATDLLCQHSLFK
- condition details: at 1 µM
Output should be the measured figure followed by the unit it is expressed in.

For the compound CC(C)(C)c1cc(C=C(C#N)C#N)cc(Br)c1O , the measured residual activity on Serine/threonine-protein kinase haspin (Homo sapiens) was 105%

For the compound O=C1NC(=O)c2c1c1c3ccccc3n3c1c1c2c2ccccc2n1C1CCC3O1 , the measured residual activity on Serine/threonine-protein kinase haspin (Homo sapiens) was 50%

For the compound COC(=O)[C@@]1(O)C[C@H]2O[C@]1(C)n1c3ccccc3c3c4c(c5c6ccccc6n2c5c31)C(=O)NC4 , the measured residual activity on Serine/threonine-protein kinase haspin (Homo sapiens) was 8%

For the compound O=c1[nH]c2ccccc2n1C1CCN(Cc2ccc(-c3nc4cc5[nH]cnc5cc4nc3-c3ccccc3)cc2)CC1 , the measured residual activity on Serine/threonine-protein kinase haspin (Homo sapiens) was 76%

For the compound N/C(=N\[N+](=O)[O-])N/N=C\c1ccc(-c2cccc([N+](=O)[O-])c2)o1 , the measured residual activity on Serine/threonine-protein kinase haspin (Homo sapiens) was 97%

---

- tgt: Death-associated protein kinase 2 (Homo sapiens)
- condition details: at 10 µM
assay metric: residual activity (%)
# number only, unit % dropped from output

Consider COc1ccc2c(c[n+](C)c3c4cc5c(cc4ccc23)OCO5)c1OC . Its measured residual activity is 91

Consider O=C1NC(=O)c2c1c1c3ccccc3n3c1c1c2c2ccccc2n1C1CCC3O1 . Its measured residual activity is 20

Consider COc1cc(OC)c(/C=C2\C(=O)Nc3ccccc32)c(OC)c1 . Its measured residual activity is 95

Consider O=c1[nH]c2ccccc2n1C1CCN(Cc2ccc(-c3nc4cc5[nH]cnc5cc4nc3-c3ccccc3)cc2)CC1 . Its measured residual activity is 78

Consider COc1ccc2c(c1)/C(=C/c1cnc[nH]1)C(=O)N2 . Its measured residual activity is 51

Consider C[S+]([O-])c1ccc(-c2nc(-c3ccc(F)cc3)c(-c3ccncc3)[nH]2)cc1 (stereo not drawn) . Its measured residual activity is 103

Consider CC(C)(C)c1cc(C=C(C#N)C#N)cc(Br)c1O . Its measured residual activity is 103

Consider O=C1c2ccccc2-c2nc3nnnn3nc21 . Its measured residual activity is 114

---

Task for the reader: assign each of the following compounds its reported residual activity.
- tgt: PAS domain-containing serine/threonine-protein kinase (Homo sapiens)
- condition details: at 10 µM
# number only, unit % dropped from output

Consider O=c1[nH]c2ccccc2n1C1CCN(Cc2ccc(-c3nc4cc5[nH]cnc5cc4nc3-c3ccccc3)cc2)CC1 . Its measured residual activity is 42

Consider CC(C)(C)c1cc(C=C(C#N)C#N)cc(Br)c1O . Its measured residual activity is 44

Consider COC(=O)[C@@]1(O)C[C@H]2O[C@]1(C)n1c3ccccc3c3c4c(c5c6ccccc6n2c5c31)C(=O)NC4 . Its measured residual activity is 4

Consider C[S+]([O-])c1ccc(-c2nc(-c3ccc(F)cc3)c(-c3ccncc3)[nH]2)cc1 (configuration not stated) . Its measured residual activity is 113

Consider COc1ccc2c(c1)/C(=C/c1cnc[nH]1)C(=O)N2 . Its measured residual activity is 81

Consider COc1ccc2c(c[n+](C)c3c4cc5c(cc4ccc23)OCO5)c1OC . Its measured residual activity is 61

Consider c1cc(-c2cnn3cc(-c4ccc(OCCN5CCCCC5)cc4)cnc23)ccn1 . Its measured residual activity is 57

---

- tgt: Protein kinase C eta type (Homo sapiens) (UniProt P24723)
- Sequence (P24723 whole entry): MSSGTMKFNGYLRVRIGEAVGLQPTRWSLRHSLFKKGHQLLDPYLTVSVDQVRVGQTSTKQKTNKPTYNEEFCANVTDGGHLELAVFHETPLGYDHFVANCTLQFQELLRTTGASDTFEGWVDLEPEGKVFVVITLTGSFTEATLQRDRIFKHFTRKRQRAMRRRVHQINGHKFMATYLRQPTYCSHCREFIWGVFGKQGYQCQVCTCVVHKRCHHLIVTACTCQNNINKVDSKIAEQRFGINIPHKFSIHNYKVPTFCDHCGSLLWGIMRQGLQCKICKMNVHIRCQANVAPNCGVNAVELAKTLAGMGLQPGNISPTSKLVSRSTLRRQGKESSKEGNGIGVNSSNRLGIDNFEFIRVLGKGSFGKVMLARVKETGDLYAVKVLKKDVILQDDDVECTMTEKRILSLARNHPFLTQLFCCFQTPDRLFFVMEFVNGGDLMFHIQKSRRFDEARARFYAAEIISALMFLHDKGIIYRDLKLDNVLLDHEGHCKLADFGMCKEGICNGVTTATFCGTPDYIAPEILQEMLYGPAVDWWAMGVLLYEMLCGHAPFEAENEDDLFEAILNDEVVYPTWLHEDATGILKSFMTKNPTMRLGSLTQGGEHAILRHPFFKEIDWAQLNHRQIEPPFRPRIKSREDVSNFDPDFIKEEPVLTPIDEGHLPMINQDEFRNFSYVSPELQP
- condition details: at 10 µM
Task for the reader: assign each of the following compounds its reported residual activity.
# number only, unit % dropped from output

Consider CCc1nc(-c2ccc(OC)cc2)[nH]c1-c1ccncc1 . Its measured residual activity is 73

Consider O=c1[nH]c2ccccc2n1C1CCN(Cc2ccc(-c3nc4cc5[nH]cnc5cc4nc3-c3ccccc3)cc2)CC1 . Its measured residual activity is 83

Consider COc1cc2ncnc(Nc3ccc(OCc4ccccc4)cc3)c2cc1OC . Its measured residual activity is 97

Consider CC(C)[C@H](CO)Nc1nc(Nc2cccc(Cl)c2)c2ncn(C(C)C)c2n1 . Its measured residual activity is 90

Consider C[S+]([O-])c1ccc(-c2nc(-c3ccc(F)cc3)c(-c3ccncc3)[nH]2)cc1 (configuration not stated) . Its measured residual activity is 77

Consider COc1cc(OC)c(/C=C2\C(=O)Nc3ccccc32)c(OC)c1 . Its measured residual activity is 94

Consider CCn1cnc2c(Nc3cccc(Cl)c3)nc(N[C@@H]3CCCC[C@@H]3N)nc21 . Its measured residual activity is 80

---

- tgt: Calcium/calmodulin-dependent protein kinase type IV (Homo sapiens)
- condition details: at 1 µM
assay metric: residual activity (%)
# number only, unit % dropped from output

Consider O=C1Nc2ccc3ncsc3c2/C1=C/c1c[nH]cn1 . Its measured residual activity is 80

Consider O=c1[nH]c2ccccc2n1C1CCN(Cc2ccc(-c3nc4cc5[nH]cnc5cc4nc3-c3ccccc3)cc2)CC1 . Its measured residual activity is 130

Consider O=C1c2ccccc2-c2nc3nnnn3nc21 . Its measured residual activity is 122

Consider O=C1NC(=O)c2c1c1c3ccccc3n3c1c1c2c2ccccc2n1C1CCC3O1 . Its measured residual activity is 90

Consider CC(C)(C)c1cc(C=C(C#N)C#N)cc(Br)c1O . Its measured residual activity is 115

Consider C[S+]([O-])c1ccc(-c2nc(-c3ccc(F)cc3)c(-c3ccncc3)[nH]2)cc1 (configuration not stated) . Its measured residual activity is 113

Consider COC(=O)[C@@]1(O)C[C@H]2O[C@]1(C)n1c3ccccc3c3c4c(c5c6ccccc6n2c5c31)C(=O)NC4 . Its measured residual activity is 24

---

Task for the reader: assign each of the following compounds its reported residual activity.
- tgt: SRSF protein kinase 1 (Homo sapiens)
- condition details: at 10 µM
# number only, unit % dropped from output

Consider C[S+]([O-])c1ccc(-c2nc(-c3ccc(F)cc3)c(-c3ccncc3)[nH]2)cc1 (stereo not drawn) . Its measured residual activity is 109

Consider O=C1NC(=O)c2c1c1c3ccccc3n3c1c1c2c2ccccc2n1C1CCC3O1 . Its measured residual activity is 83

Consider CC(C)[C@H](CO)Nc1nc(Nc2cccc(Cl)c2)c2ncn(C(C)C)c2n1 . Its measured residual activity is -1

Consider COc1ccc2c(c1)/C(=C/c1cnc[nH]1)C(=O)N2 . Its measured residual activity is 98

Consider O=C1Nc2ccc3ncsc3c2/C1=C/c1c[nH]cn1 . Its measured residual activity is 101

Consider O=c1[nH]c2ccccc2n1C1CCN(Cc2ccc(-c3nc4cc5[nH]cnc5cc4nc3-c3ccccc3)cc2)CC1 . Its measured residual activity is 97

Consider O=C1c2ccccc2-c2nc3nnnn3nc21 . Its measured residual activity is 111

Consider COC(=O)[C@@]1(O)C[C@H]2O[C@]1(C)n1c3ccccc3c3c4c(c5c6ccccc6n2c5c31)C(=O)NC4 . Its measured residual activity is 14

---

- tgt: Mitogen-activated protein kinase kinase kinase 5 (Homo sapiens) (UniProt Q99683)
- Sequence (Q99683 whole entry): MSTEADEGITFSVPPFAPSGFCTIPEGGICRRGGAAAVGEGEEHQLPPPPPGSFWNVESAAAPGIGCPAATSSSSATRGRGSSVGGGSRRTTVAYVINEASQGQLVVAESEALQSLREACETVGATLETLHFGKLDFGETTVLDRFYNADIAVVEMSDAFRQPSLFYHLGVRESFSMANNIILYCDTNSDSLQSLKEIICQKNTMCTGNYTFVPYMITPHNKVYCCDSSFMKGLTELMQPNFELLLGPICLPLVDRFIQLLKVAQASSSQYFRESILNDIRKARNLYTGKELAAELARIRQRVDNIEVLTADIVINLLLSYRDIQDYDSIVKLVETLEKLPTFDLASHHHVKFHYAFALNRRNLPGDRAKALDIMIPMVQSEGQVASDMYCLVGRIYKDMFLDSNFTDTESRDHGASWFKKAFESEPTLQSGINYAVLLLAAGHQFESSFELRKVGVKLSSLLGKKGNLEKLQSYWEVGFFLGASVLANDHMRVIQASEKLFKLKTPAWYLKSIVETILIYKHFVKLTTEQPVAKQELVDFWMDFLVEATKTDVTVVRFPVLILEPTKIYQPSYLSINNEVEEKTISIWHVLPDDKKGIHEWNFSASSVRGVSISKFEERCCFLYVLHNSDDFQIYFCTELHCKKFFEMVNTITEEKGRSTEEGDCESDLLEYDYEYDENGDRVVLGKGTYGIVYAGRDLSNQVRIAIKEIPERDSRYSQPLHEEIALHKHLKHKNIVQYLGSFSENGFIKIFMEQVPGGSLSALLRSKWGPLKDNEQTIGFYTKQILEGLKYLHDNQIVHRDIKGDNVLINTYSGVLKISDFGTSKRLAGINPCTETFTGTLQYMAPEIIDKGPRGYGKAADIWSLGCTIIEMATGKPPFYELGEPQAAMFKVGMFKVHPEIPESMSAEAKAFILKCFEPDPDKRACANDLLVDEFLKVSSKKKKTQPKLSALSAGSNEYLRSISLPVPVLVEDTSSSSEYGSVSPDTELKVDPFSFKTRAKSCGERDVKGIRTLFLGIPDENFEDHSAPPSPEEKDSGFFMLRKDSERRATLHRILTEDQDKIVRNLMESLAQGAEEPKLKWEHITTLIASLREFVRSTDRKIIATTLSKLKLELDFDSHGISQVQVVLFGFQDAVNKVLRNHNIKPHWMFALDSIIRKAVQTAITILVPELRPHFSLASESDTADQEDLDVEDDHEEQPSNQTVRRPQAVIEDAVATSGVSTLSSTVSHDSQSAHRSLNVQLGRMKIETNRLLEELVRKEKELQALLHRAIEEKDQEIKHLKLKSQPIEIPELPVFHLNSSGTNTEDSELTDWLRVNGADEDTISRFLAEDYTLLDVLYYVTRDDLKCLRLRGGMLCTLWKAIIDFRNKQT
- condition details: at 1 µM
Task for the reader: assign each of the following compounds its reported residual activity.

Consider CC(C)[C@H](CO)Nc1nc(Nc2cccc(Cl)c2)c2ncn(C(C)C)c2n1 . Its measured residual activity is 102%

Consider COC(=O)[C@@]1(O)C[C@H]2O[C@]1(C)n1c3ccccc3c3c4c(c5c6ccccc6n2c5c31)C(=O)NC4 . Its measured residual activity is 0%

Consider O=c1[nH]c2ccccc2n1C1CCN(Cc2ccc(-c3nc4cc5[nH]cnc5cc4nc3-c3ccccc3)cc2)CC1 . Its measured residual activity is 99%

Consider CCn1cnc2c(Nc3cccc(Cl)c3)nc(N[C@@H]3CCCC[C@@H]3N)nc21 . Its measured residual activity is 91%

Consider O=[N+]([O-])/C=C/c1ccc2c(c1)OCO2 . Its measured residual activity is 109%

Consider O=C1Nc2ccc3ncsc3c2/C1=C/c1c[nH]cn1 . Its measured residual activity is 26%

Consider O=C1NC(=O)c2c1c1c3ccccc3n3c1c1c2c2ccccc2n1C1CCC3O1 . Its measured residual activity is 96%
